IC50 for assorted compounds
# assay-system: Sodium-dependent serotonin transporter (Homo sapiens, UniProt P31645)
# Sequence (P31645 whole entry): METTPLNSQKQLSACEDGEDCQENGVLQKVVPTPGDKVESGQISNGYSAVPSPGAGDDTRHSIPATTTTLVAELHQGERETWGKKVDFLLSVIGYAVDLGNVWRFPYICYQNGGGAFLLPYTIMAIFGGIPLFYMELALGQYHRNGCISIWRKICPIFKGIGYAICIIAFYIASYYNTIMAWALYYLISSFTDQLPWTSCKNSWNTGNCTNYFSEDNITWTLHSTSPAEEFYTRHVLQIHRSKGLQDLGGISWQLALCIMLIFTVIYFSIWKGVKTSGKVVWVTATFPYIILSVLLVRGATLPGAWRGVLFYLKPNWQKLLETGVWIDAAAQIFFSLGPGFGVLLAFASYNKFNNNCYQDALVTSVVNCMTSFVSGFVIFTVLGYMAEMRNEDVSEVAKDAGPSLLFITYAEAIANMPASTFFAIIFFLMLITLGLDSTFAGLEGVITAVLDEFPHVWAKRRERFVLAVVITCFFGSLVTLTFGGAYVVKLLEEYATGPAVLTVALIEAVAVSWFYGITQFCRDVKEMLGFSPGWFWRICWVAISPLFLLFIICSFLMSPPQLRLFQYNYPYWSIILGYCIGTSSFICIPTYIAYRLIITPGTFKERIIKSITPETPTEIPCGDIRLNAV
# Type: cell-based, HEK293
# Description: Inhibition of SERT (unknown origin) expressed in HEK293 cells assessed as reduction in 5-HT uptake incubated for 30 mins
Report the figure in µM without appending any unit label.

INSERT INTO assay_data (item_smiles, experimental_readout, numeric_value) VALUES
  ('COC(=O)c1ccc2[nH]cc(CCCCN3CCN(c4cccc5nc6c(c(N)c45)CCCC6)CC3)c2c1', 'IC50', 0.314),
  ('COc1ccc2[nH]cc(CCCCN3CCN(c4cccc5nc6c(c(N)c45)CCCC6)CC3)c2c1', 'IC50', 0.229),
  ('N#Cc1ccc2[nH]cc(CCCCN3CCN(c4cccc5nc6c(c(N)c45)CCCC6)CC3)c2c1', 'IC50', 0.0204);

Any idea what its IC50 is? The compound is "N#Cc1ccc2[nH]cc(CCCCN3CCN(c4cccc5nc6c(c(N)c45)CCC6)CC3)c2c1"
0.0221

Source: ChEMBL document CHEMBL4118156
